# Ki measurements, system: Human immunodeficiency virus type 1 protease (Human immunodeficiency virus 1)
Give your result as the value with the unit written after it.

cpdSmiles	experimentalReadout	obsValue
O=C(Nc1ccccn1)c1cccc(CN2C(=O)N(Cc3ccc4[nH]ncc4c3)[C@H](Cc3ccccc3)[C@H](O)[C@@H](O)[C@H]2Cc2ccccc2)c1	Ki	0.051 nM
O=C1N(Cc2cccc(-c3nc[nH]n3)c2)[C@H](Cc2ccccc2)[C@H](O)[C@@H](O)[C@@H](Cc2ccccc2)N1Cc1ccc2[nH]ncc2c1	Ki	0.041 nM
Nc1ccc(CN2C(=O)N(Cc3ccc4[nH]ncc4c3)[C@H](Cc3ccccc3)[C@H](O)[C@@H](O)[C@H]2Cc2ccccc2)cc1-n1cncn1	Ki	0.029 nM
Nc1ccc(CN2C(=O)N(Cc3ccc4[nH]ncc4c3)[C@H](Cc3ccccc3)[C@H](O)[C@@H](O)[C@H]2Cc2ccccc2)cc1-n1ccnn1	Ki	0.034 nM
O=C(Cn1ccnn1)c1cccc(CN2C(=O)N(Cc3ccc4[nH]ncc4c3)[C@H](Cc3ccccc3)[C@H](O)[C@@H](O)[C@H]2Cc2ccccc2)c1	Ki	0.021 nM
O=C1N(Cc2cccc(Cn3cccn3)c2)[C@H](Cc2ccccc2)[C@H](O)[C@@H](O)[C@@H](Cc2ccccc2)N1Cc1ccc2[nH]ncc2c1	Ki	0.17 nM

[in] Give Human immunodeficiency virus type 1 protease (Human immunodeficiency virus 1) Ki for O=C1N(Cc2cccc(Cn3nccn3)c2)[C@H](Cc2ccccc2)[C@H](O)[C@@H](O)[C@@H](Cc2ccccc2)N1Cc1ccc2[nH]ncc2c1
[out] 0.081 nM

----------
compounds and their reported Cmax
assayRemarks: Peak plasma concentration was measured in dogs
Type: ADME, organism-based, Canis lupus familiaris
conditionSummary: dog
Reply numerically in nM, unit not repeated.

// solved cases for Cmax follow
cpdSmiles	obsValue
CC(=O)c1cccc(CN2C(=O)N(Cc3ccc4[nH]ncc4c3)[C@H](Cc3ccccc3)[C@H](O)[C@@H](O)[C@H]2Cc2ccccc2)c1	1300
CNc1cc(CN2C(=O)N(Cc3ccc4[nH]ncc4c3)[C@H](Cc3ccccc3)[C@H](O)[C@@H](O)[C@H]2Cc2ccccc2)ccc1F	670

Let's switch to this compound now.
[in] Look at this compound and give its reported Cmax. Nc1cccc(CN2C(=O)N(Cc3ccc4[nH]ncc4c3)[C@H](Cc3ccccc3)[C@H](O)[C@@H](O)[C@H]2Cc2ccccc2)c1
[out] 7200

----------
measuredOn: Human immunodeficiency virus type 1 protease (Human immunodeficiency virus 1)
pKi: −log10 of the molar value.
If the reported pKi equals or exceeds 10, assign MET. If not, assign NOT MET.

Below are worked cases with known answers.
cpdSmiles	measuredOn	groupLabel
O=C1N(Cc2cccc(CCO)c2)[C@H](Cc2ccccc2)[C@H](O)[C@@H](O)[C@@H](Cc2ccccc2)N1Cc1ccc2[nH]ncc2c1	Human immunodeficiency virus type 1 protease (Human immunodeficiency virus 1)	MET
Nc1ccc(CN2C(=O)N(Cc3ccc4[nH]ncc4c3)[C@H](Cc3ccccc3)[C@H](O)[C@@H](O)[C@H]2Cc2ccccc2)cc1-n1cccn1	Human immunodeficiency virus type 1 protease (Human immunodeficiency virus 1)	MET
Cc1ccc(NC(=O)c2cccc(CN3C(=O)N(Cc4ccc5[nH]ncc5c4)[C@H](Cc4ccccc4)[C@H](O)[C@@H](O)[C@H]3Cc3ccccc3)c2)nc1	Human immunodeficiency virus type 1 protease (Human immunodeficiency virus 1)	MET

Continue with the compound presented below.
[in] Can O=C(Cc1cccs1)c1cccc(CN2C(=O)N(Cc3ccc4[nH]ncc4c3)[C@H](Cc3ccccc3)[C@H](O)[C@@H](O)[C@H]2Cc2ccccc2)c1 be said to have pKi at or above 10?
[out] NOT MET
